system: SK-OV-3; experiment: NCI tumour cell line growth inhibition, 48 h
Active and inactive are the calls of the source. Rule as the data show it: active = GI50 up to about 1.1 µM and inactive = higher.
recordedEndpoint: GI50

For orientation, consider the following solved cases.
COc1ccc(C)c2c1N[C@](C)([C@]1(C)Nc3c(OC)ccc(C)c3C1=O)C2=O : > 100 µM (inactive)
c1ccc([P+](c2ccccc2)(c2ccccc2)c2ccc(-c3ccc([P+](c4ccccc4)(c4ccccc4)c4ccccc4)cc3)cc2)cc1 : 43.2 µM (inactive)
CC(=C(c1ccccc1)c1ccccc1)N1C(=O)CC(=O)N1C : > 100 µM (inactive)
Nc1nc(N)c2c(n1)CCC(S(=O)(=O)c1ccc3ccccc3c1)C2 (stereo not given) : 33.3 µM (inactive)

Could you now consider this next molecule?
Req: Reported GI50 for "Cc1ccc(S(=O)(=O)OC2CC=CC2)cc1" : what is it?
Resp: > 100 µM (inactive)

* * *

tested on: HOP-18; assay: NCI tumour cell line growth inhibition, 48 h
Calls of active or inactive are those of the source. No stated cut-off is given here; in the data, active = GI50 up to about 1.1 µM and inactive = higher. Where a SMILES comes first, the peptide text is derived from it. [ ]: non-standard residue; d: D form. Phe(F5) = N[CH](Cc1c(F)c(F)c(F)c(F)c1F)C(=O)O
recordedEndpoint: GI50

C=C1C[C@@H](O)C[C@@]2(C)C[C@@H]3OC(=O)C(=C)[C@@H]3C[C@H]12 : 3.98 µM (inactive)
C=CC1(c2ccccc2Cl)N/C(=C/OCC)CO1 (stereo not drawn) : > 100 µM (inactive)
COC12OCCN(CCO)C1=CC(=O)C1(C)N=NC(C)C12 (stereo not drawn) : > 100 µM (inactive)
C=C1C(=O)OC2/C=C(\CO)C(OC(C)=O)CC(O)/C(C)=C/C(OC(=O)C(C)CC)C12 (stereo not drawn) : 23.8 µM (inactive)
c1ccc2c(c1)[Se]c1ccccc1[Se]2 : 4.92 µM (inactive)

Req: Reported GI50 for CC12C3CC4C5CC(C(C53)[C@@H]1NCc1ccccc1)C42 (stereo partly drawn) : what is it?
Resp: > 100 µM (inactive)

Req: Reported GI50 for COC(=O)C(CC(C)C)NC(=O)C(Cc1c[nH]cn1)NC(=O)CNC(=O)C(NC(=O)C(C)NC(=O)C(Cc1c[nH]c2ccccc12)NC(=O)C(CCC(=O)O)NC(=O)C(N)Cc1c(F)c(F)c(F)c(F)c1F)C(C)C (stereo not drawn) (H-[Phe(F5)]EWAVGHL-OMe; configuration not given here) : what is it?
Resp: > 100 µM (inactive)

Req: Reported GI50 for "COc1ccc2nc(NC(=O)C(=O)CC(=O)c3ccc(Cl)cc3)sc2c1" : what is it?
Resp: 78.2 µM (inactive)

* * *

test system: NCI-H522; assay: NCI tumour cell line growth inhibition, 48 h
Active and inactive are the calls of the source. Cut-off read from the data, not from the text of the source: active = GI50 up to about 1.1 µM and inactive = higher.
recordedEndpoint: GI50

For orientation, consider the following solved cases.
Cc1cc2c(c(C(N)=O)c1C)-c1ccccc1C2=O : > 100 µM (inactive)
Cn1c2ccccc2n2c3ccccc3c3nnc(N)c-3c12 : 8.53 µM (inactive)
O=S1(=O)OCCOS(=O)(=O)C1(F)Cc1ccccc1 : > 100 µM (inactive)

Req: Reported GI50 for "[N-]=[N+]=NC1=NNC2(C(=O)N1)c1ccccc1-c1ccccc12" : what is it?
Resp: > 100 µM (inactive)

Req: Reported GI50 for CCC(C)C(=O)OC1CC2(C)C(c3ccoc3)OC(=O)CC23OC2(C)OC34C(OC(=O)C(C)C)C3(O)C(OC(=O)C5(C)OC5C)C5(C)CC3(O)C(C)(C5CC(=O)OC)C14O2 (stereo not given) : what is it?
Resp: 37 µM (inactive)

Req: Reported GI50 for N=C1OC(CN2CCN(c3ccccc3)CC2)CN1C(=O)Nc1ccccc1 (stereo not given) : what is it?
Resp: 39.7 µM (inactive)

Req: Reported GI50 for "C=CC[C@H]1[C@@H](O[Si](C)(C)C(C)(C)C)[C@H](n2ccc(=O)[nH]c2=O)O[C@@H]1CO[Si](C)(C)C(C)(C)C" : what is it?
Resp: 1.76 µM (inactive)

Req: Reported GI50 for CC(=O)OCC1OC(Oc2cc(C)c(O)cc2C/C=C(\C)CC/C=C(\C)CC(=O)CC(C)C)C(O)C(OC(C)=O)C1OC(C)=O (stereo not given) : what is it?
Resp: 13.6 µM (inactive)

Req: Reported GI50 for "CCN(CC)CCCNc1nc(=O)[nH]c(C)c1C(=O)Nc1ccc2c(c1)c1ccccc1n2CC" : what is it?
Resp: > 100 µM (inactive)

Req: Reported GI50 for "COC(=O)NC(Nc1ccc(C)cc1)(C(F)(F)F)C(F)(F)F" : what is it?
Resp: > 100 µM (inactive)

Req: Reported GI50 for "O=C1CCSC(=S)N1c1ccc(Br)c(Cl)c1" : what is it?
Resp: 21 µM (inactive)

Req: Reported GI50 for "O=C(NNC(=S)Nc1ccc(Br)cc1)c1cc(-c2ccccc2)nc2ccccc12" : what is it?
Resp: 22.2 µM (inactive)

Req: Reported GI50 for "Nc1cc2ncnn2c(SCC(=O)N/N=C/C(Br)=C\c2ccccc2)n1" : what is it?
Resp: 10.6 µM (inactive)

Req: Reported GI50 for "COc1cc(/C=N/NC(=O)c2c(Cl)c(Cl)c(Cl)c(Cl)c2-c2nc3ccccc3[nH]2)ccc1O" : what is it?
Resp: 30.6 µM (inactive)

Req: Reported GI50 for "Cc1nc2ccccc2c(=O)n1NC(=O)c1ccc(CS)cc1" : what is it?
Resp: 12.3 µM (inactive)

Req: Reported GI50 for "CC(C)(C)c1cc(C(O)(C(=O)O)C(=O)O)cc(C(C)(C)C)c1O" : what is it?
Resp: > 100 µM (inactive)

Req: Reported GI50 for CCOP(=O)(OCC)OC1CC(n2cc(C)c(=O)n(C)c2=O)OC1CO[Si](C)(C)C(C)(C)C (stereo not given) : what is it?
Resp: 32.1 µM (inactive)

Req: Reported GI50 for "O=C(/C=C(O)/C(=C/C(=O)c1ccccc1)NN=C(c1ccccc1)c1ccccc1)c1ccccc1" : what is it?
Resp: 15.7 µM (inactive)

Req: Reported GI50 for Clc1ccccc1C1SCc2nc3ccccc3n21 (stereo not given) : what is it?
Resp: 9.55 µM (inactive)

Req: Reported GI50 for "O=C(CCn1[nH]c(=O)c(Cl)c(Cl)c1=O)NO" : what is it?
Resp: > 100 µM (inactive)

* * *

test system: CCRF-CEM; test: NCI tumour cell line growth inhibition, 48 h
Active and inactive are the calls of the source. Rule as the data show it: active = GI50 up to about 1.1 µM and inactive = higher.
Listing of recorded GI50 by entry.

For orientation, consider the following solved cases.
O=C(c1ccc2ccccc2c1)C1(I)S(=O)(=O)OCCOS1(=O)=O : > 100 µM (inactive)
N=C(N)NS(=O)(=O)c1ccc(Nc2c3ccccc3nc3ccc(C(=O)Nc4ccc(S(N)(=O)=O)cc4)cc23)cc1 : > 100 µM (inactive)
COc1ccc(/C=C2\C[C@H]3[C@@H]4CCC5=C/C(=N/O)CC[C@]5(C)[C@H]4CC[C@]3(C)\C2=N\O)cc1OC : 6.76 µM (inactive)
CCCCCCCCCCCCCCCCCC(=O)OCC(C[As](=O)(O)O)OC(=O)CCCCCCCCCCCCCCCCC (centres undefined) : 39 µM (inactive)
N=C1OC(CN2CCN(c3ccccc3)CC2)CN1C(=O)Nc1ccccc1 (centres undefined) : 43.3 µM (inactive)

Req: Reported GI50 for "c1ccc(OCc2nnc(CCCCCCCCc3nnc(COc4ccccc4)o3)o2)cc1" : what is it?
Resp: > 100 µM (inactive)

Req: Reported GI50 for CCCCCCCCCCCCCCCCNc1nc(=O)n(C2CC(O)C(COP(=O)(O)OC3CC(n4cc(F)c(=O)[nH]c4=O)OC3CO)O2)cc1F (centres undefined) : what is it?
Resp: < 0.0122 µM (active)

Req: Reported GI50 for "Cn1nc(-c2cccc(-c3nn(C)/c(=N\CCO)s3)n2)s/c1=N/CCO" : what is it?
Resp: > 100 µM (inactive)

Req: Reported GI50 for C[n+]1ccc(-c2cc[n+](C)cc2)cc1 [PARAQUAT DICHLORIDE] : what is it?
Resp: > 48.4 µM (inactive)

* * *

Listing of recorded GI50 by entry.
test system: NCI-H226; experiment: NCI tumour cell line growth inhibition, 48 h
Active and inactive are the calls of the source. Rule as the data show it: active = GI50 up to about 1.1 µM and inactive = higher.

COC(=O)C(/C(=N/NC(N)=S)C(=O)Nc1ccccc1[N+](=O)[O-])c1cnc2ccccc2n1 (centres undefined) : > 100 µM (inactive)

Req: Field: GI50 (NCI-H226). Entry: "CCC1(CC)C(=O)CC[C@@]2(C)C1=CC[C@H]1[C@@H]3CC[C@H](O)[C@@]3(C)CC[C@@H]12"
Resp: 29 µM (inactive)

Req: Field: GI50 (NCI-H226). Entry: Cc1ccc(NC(=O)/C(=N/NC(=O)CC#N)C2C(=O)N(c3ccccc3)N=C2N)cc1C (centres undefined)
Resp: > 100 µM (inactive)

# credit: ChEMBL document CHEMBL1201862
